Attribution: patent US9328138B2

# assayed system: HCV genotype 1b (BK) NS3 modified enzyme with a R155K mutation (Hepatitis C virus genotype 1b, UniProt P26663, R1181K)
# Construct: HCV genotype 1b (BK) NS3 modified enzyme
# protocol notes: HCV NS3 protease time-resolved fluorescence (TRF) assay, genotype 1b R155K
# Assay type: biochemical
# settings: Ki 1b R155K, genotype 1b (BK) NS3 R155K; single value
readout kind: Ki
Put your answer as a value accompanied by its unit after it.

What does the data say about its Ki? Entry: C=C[C@@H]1C[C@]1(NC(=O)[C@@H]1C[C@@H]2CN1C(=O)[C@H](C(C)(C)C)NC(=O)O[C@@H]1C[C@H]1CCCCCc1c(nc3ccccc3c1OCC1CN(C(=O)OC(C)(C)C)C1)O2)C(=O)NS(=O)(=O)C1(C)CC1 [Example 142]
700 pM

# lookup: Ki of C=C[C@@H]1C[C@]1(NC(=O)[C@@H]1C[C@@H]2CN1C(=O)[C@H](C1CCCC1)NC(=O)O[C@@H]1CCC[C@H]1CC/C=C/Cc1c(nc3ccccc3c1OCCCOCCOC)O2)C(=O)NS(=O)(=O)C1CC1 [Example 47]
120 pM

Any idea what Ki was measured for C=C[C@@H]1C[C@]1(NC(=O)[C@@H]1C[C@@H]2CN1C(=O)[C@H](C1CCCC1)NC(=O)N1CC[C@@H](C1)OCCCCCCc1c(nc3ccccc3c1OCC)O2)C(=O)NS(=O)(=O)C1CC1 [Example 33] ?
320 pM

* * *

# assayed system: HCV genotype 1b (BK) NS3 modified enzyme with a R155K mutation (Hepatitis C virus genotype 1b, UniProt P26663, R1181K)
# Construct: HCV genotype 1b (BK) NS3 modified enzyme
# protocol notes: HCV NS3 protease time-resolved fluorescence (TRF) assay, genotype 1b R155K
# Assay type: biochemical
# settings: Ki 1b R155K, second of two values printed in the cell (not explained)
readout kind: Ki (pM)
Dear colleague, please return just the value in pM, with no unit written.

Form field: reported Ki of C=C[C@@H]1C[C@]1(NC(=O)[C@@H]1C[C@@H]2CN1C(=O)[C@H](C(C)(C)C)NC(=O)O[C@@H]1C[C@H]1CCCCCc1c(nc3ccccc3c1OC1CC3CCC(C1)N3)O2)C(=O)NS(=O)(=O)C1(C)CC1 (single isomer, unassigned) [Example 274]
15

Bench note: what Ki did C=C[C@@H]1CC1(NC(=O)[C@@H]1C[C@@H]2CN1C(=O)[C@H](C1CCOCC1)NC(=O)O[C@@H]1C[C@H]1CCCCCc1c(nc3ccccc3c1OC1CCN(C)CC1)O2)C(=O)NS(=O)(=O)C1(C)CC1 (some centres unmarked) show?
22

* * *

# assayed system: HCV genotype 1b (BK) NS3 modified enzyme with a R155K mutation (Hepatitis C virus genotype 1b, UniProt P26663, R1181K)
# Construct: HCV genotype 1b (BK) NS3 modified enzyme
# protocol notes: HCV NS3 protease time-resolved fluorescence (TRF) assay, genotype 1b R155K
# Format: biochemical
# settings: Ki 1b R155K, genotype 1b (BK) NS3 R155K; single value
readout kind: Ki

Bench note: what Ki did C=C[C@@H]1C[C@]1(NC(=O)[C@@H]1C[C@@H]2CN1C(=O)[C@H](C(C)(C)C)NC(=O)O[C@@H]1C[C@H]1CCCCCc1c(nc3ccccc3c1OCCCNCCN1CCCC1=O)O2)C(=O)NS(=O)(=O)C1(C)CC1 [Example 197] show?
0.027 nM

Give its Ki value. Item: CC1(S(=O)(=O)NC(=O)[C@@]23C[C@H]2/C=C\CCCCC[C@@H]2NC(=O)O[C@@H]4C[C@H]4CCC/C=C/c4c(nc5ccccc5c4OCCN4CCOCC4)O[C@@H]4C[C@@H](C(=O)N3)N(C4)C2=O)CC1 [Example 297]
0.27 nM
